- systemUnderTest: Dihydrofolate reductase (Rattus norvegicus, UniProt Q920D2)
- Sequence (Q920D2 whole entry): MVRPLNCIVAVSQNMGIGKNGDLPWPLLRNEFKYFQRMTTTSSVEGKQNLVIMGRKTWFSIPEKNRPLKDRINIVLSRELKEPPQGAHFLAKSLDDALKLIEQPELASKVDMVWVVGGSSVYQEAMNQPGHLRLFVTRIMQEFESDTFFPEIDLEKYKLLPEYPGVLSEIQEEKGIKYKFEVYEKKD
pIC50: −log10 of the molar value.
This section presents compounds with their documented pIC50 values.

[ask] Dihydrofolate reductase (Rattus norvegicus, UniProt Q920D2) / pIC50 / COc1cc(Cc2cnc(N)c(Br)c2N)cc(OC)c1O : value?
[reply] ~1.38

---

- experimentalDetails: Dissociation constant (pKa)
- Format: physicochemical
- experimentalConditions: read-out: Dissociation constant
measureName: pKa

[[record]]
compoundstring = "COc1cc(Cc2cnc(N)c(F)c2N)cc(OC)c1O"
measurename = "pKa"
reported = 7.15

[[record]]
compoundstring = "COc1cc(Cc2cnc(N)c(Br)c2N)cc(OC)c1O"
measurename = "pKa"
reported = 7.2

[[record]]
compoundstring = "CCc1cc(Cc2ccc(N)nc2N)cc(CC)c1O"
measurename = "pKa"
reported = 6.59

[[record]]
compoundstring = "Nc1ccnc(N)c1"
measurename = "pKa"
reported = 9.25

[[record]]
compoundstring = "Nc1ncc(Br)c(N)c1Br"
measurename = "pKa"
reported = 5.5

[[record]]
compoundstring = "COc1cc(CNc2ccnc(N)c2F)cc(OC)c1O"
measurename = "pKa"
reported = 7.26


---

- experimentalDetails: Dissociation constant (pKa)
- Format: physicochemical
- experimentalConditions: read-out: Dissociation constant
measureName: pKa

A = Nc1cccc(N)n1
B = CCOC(=O)Nc1ccnc(C(N)=O)c1
C = COc1cc(CC2C=CC(N)=NC2=O)cc(OC)c1O (stereo not drawn)
[ask] Sort these compounds on pKa so the largest reading comes first. # list labels per requested ordering
[reply] A, B, C
(A: 6.73, B: 3.32, C: 1.31)

P = COc1cc(Cc2ccc(N)nc2N)cc(OC)c1O
Q = COc1cc(CC2=CC(Cc3cc(OC)c(O)c(OC)c3)C(=O)N=C2N)cc(OC)c1O (stereo not drawn)
[ask] Pick the one with the larger pKa: P vs Q I would appreciate it if you answered with the label of your choice.
[reply] P

I = Nc1ccnc(N)c1Br
II = CCOC(=O)Nc1ccnc(NC(=O)OCC)c1
[ask] Pick the one with the larger pKa: I vs II I would appreciate it if you answered with the label of your choice.
[reply] I

---

- systemUnderTest: Dihydrofolate reductase (Escherichia coli)
- experimentalDetails: Tested for inhibition of dihydrofolate reductase enzyme purified from Escherichia coli […]
measureName: inhibition (%)

# count of solved cases: 2
[[record]]
molecule = "COc1cc(Cc2cc(Cc3cc(OC)c(O)c(OC)c3)c(N)nc2N)cc(OC)c1O"
measurename = "inhibition"
reported = 29

[[record]]
molecule = "COc1cc(Cc2ccc(N)nc2N)cc(OC)c1O"
measurename = "inhibition"
reported = 0


A = COc1cc(Cc2c(N)ccnc2N)cc(OC)c1O
B = COc1cc(CC2C=CC(N)=NC2=O)cc(OC)c1O (stereo not given)
C = COc1cc(Cc2cnc(N)c(Br)c2N)cc(OC)c1O
[ask] Please put the entries in order of rising inhibition. # list labels per requested ordering
[reply] B, C, A
(B: 0%, C: 11%, A: 26%)
